FYI, the data here is from patent US20140221622A1.

target: c-Met on tumor cell lines (A549, IM-95, SNU-5, SNU-620) (UniProt P08581 25-1390, limits assumed); experiment: cell-based or functional assay
Sequence (P08581 25-1390 limits assumed): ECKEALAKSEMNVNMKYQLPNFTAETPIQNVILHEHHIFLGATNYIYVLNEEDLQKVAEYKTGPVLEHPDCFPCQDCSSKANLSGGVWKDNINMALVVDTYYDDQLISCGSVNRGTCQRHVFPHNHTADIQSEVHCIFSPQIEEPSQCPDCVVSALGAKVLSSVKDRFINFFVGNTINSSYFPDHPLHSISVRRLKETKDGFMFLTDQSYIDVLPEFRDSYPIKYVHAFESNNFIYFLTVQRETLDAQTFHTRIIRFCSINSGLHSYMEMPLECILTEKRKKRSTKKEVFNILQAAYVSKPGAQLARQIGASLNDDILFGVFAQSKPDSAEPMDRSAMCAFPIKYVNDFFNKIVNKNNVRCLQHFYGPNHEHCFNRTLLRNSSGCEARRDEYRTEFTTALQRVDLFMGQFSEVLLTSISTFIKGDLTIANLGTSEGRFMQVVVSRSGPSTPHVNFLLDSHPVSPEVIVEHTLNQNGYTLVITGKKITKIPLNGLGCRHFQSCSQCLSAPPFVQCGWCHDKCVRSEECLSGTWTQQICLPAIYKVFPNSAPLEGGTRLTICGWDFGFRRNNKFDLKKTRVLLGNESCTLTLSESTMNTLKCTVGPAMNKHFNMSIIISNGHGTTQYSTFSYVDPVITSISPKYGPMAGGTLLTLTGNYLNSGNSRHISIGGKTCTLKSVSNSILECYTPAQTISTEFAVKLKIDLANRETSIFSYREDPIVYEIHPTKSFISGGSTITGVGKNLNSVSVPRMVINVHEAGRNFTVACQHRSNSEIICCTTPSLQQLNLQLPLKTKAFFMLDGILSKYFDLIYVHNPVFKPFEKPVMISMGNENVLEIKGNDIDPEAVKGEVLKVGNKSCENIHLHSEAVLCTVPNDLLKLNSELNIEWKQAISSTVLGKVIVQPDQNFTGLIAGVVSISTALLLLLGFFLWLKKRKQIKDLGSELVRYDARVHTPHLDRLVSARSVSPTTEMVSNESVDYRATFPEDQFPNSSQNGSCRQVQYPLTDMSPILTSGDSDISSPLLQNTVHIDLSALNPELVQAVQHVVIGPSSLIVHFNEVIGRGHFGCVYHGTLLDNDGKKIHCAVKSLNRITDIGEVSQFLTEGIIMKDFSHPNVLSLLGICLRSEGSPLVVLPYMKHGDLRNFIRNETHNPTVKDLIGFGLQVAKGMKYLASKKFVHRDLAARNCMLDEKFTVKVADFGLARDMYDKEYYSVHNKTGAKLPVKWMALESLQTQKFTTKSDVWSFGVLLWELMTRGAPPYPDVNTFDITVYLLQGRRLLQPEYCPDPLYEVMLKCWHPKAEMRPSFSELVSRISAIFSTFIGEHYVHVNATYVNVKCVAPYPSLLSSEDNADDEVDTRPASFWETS
Measured attribute: Inhibition of SNU-5 proliferation (constitutively active c-Met) IC50

| Binder | Reported measurement |
| --- | --- |
| anti-cMet h5D5 Fab-body (antibody, human IgG1, kappa, V domains shown, Monovalent Fab-Fc heterodimer: LFc chain (VL-CL-linker-Fc knob) and HFc chain (VH-CH1-linker-Fc hole)) VH: EVQLVESGGGLVQPGGSLRLSCAASGYTFTSYWLHWVRQAPGKGLEWVGMIDPSNSDTRFNPNFKDRFTISADTSKNTAYLQMNSLRAEDTAVYYCATYRSYVTPLDYWGQGTLVTVSS VL: DIQMTQSPSSLSASVGDRVTITCKSSQSLLYTSSQKNYLAWYQQKPGKAPKLLIYWASTRESGVPSRFSGSGSGTDFTLTISSLQPEDFATYYCQQYYAYPWTFGQGTKVEIKR | 0.0041 µM |
| Anti-human c-Met antibody 5D5 (antibody, V domains shown, VH and VL are those cloned from hybridoma HB-11895 (5D5.11.6); also called bivalent antibody 5D5) VH: QVQLQQSGPELVRPGASVKMSCRASGYTFTSYWLHWVKQRPGQGLEWIGMIDPSNSDTRFNPNFKDKATLNVDRSSNTAYMLLSSLTSADSAVYYCATYGSYVSPLDYWGQGTSVTVSS VL: DFMMSQSPSSLTVSVGEKVTVSCKSSQSLLYTSSQKNYLAWYQQKPGQSPKLLIYWASTRESGVPDRFTGSGSGTDFTLTITSVKADDLAVYYCQQYYAYPWTFGGGTKLELKR | > 0.6 µM |
| MetMAb1 (antibody, V domains shown, also called monovalent c-Met antibody MetMAb1) VH: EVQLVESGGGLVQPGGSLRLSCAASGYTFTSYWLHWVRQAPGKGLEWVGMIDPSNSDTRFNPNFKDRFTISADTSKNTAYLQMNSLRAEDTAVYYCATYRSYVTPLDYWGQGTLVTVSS VL: DIQMTQSPSSLSASVGDRVTITCKSSQSLLYTSSQKNYLAWYQQKPGKAPKLLIYWASTRESGVPSRFSGSGSGTDFTLTISSLQPEDFATYYCQQYYAYPWTFGQGTKVEIKR | > 0.6 µM |

Turning to the following binder.
Consider the binder 5D5 Fab (Fab, V domains shown) VH: QVQLQQSGPELVRPGASVKMSCRASGYTFTSYWLHWVKQRPGQGLEWIGMIDPSNSDTRFNPNFKDKATLNVDRSSNTAYMLLSSLTSADSAVYYCATYGSYVSPLDYWGQGTSVTVSS VL: DFMMSQSPSSLTVSVGEKVTVSCKSSQSLLYTSSQKNYLAWYQQKPGQSPKLLIYWASTRESGVPDRFTGSGSGTDFTLTITSVKADDLAVYYCQQYYAYPWTFGGGTKLELKR and give its measured Inhibition of SNU-5 proliferation (constitutively active c-Met) IC50.
> 0.6 µM
